assay: Stability in human plasma; conditions: within 20 hours
*1 amine or outer side, *2 acyl side, *3 side chain or, on linkers, in order; H or OH if unused. Where a SMILES comes first, the peptide text is derived from it. [ ]: non-standard residue; d: D form. The star is where a group is joined. Exatecan = CC[C@@]1(O)C(=O)OCc2c1cc1n(c2=O)Cc2c-1nc1cc(F)c(C)c3c1c2[C@@H](N*)CC3; X1 = O=C(CCCCCOC1O[C@H](CO)[C@H](O)[C@H](O)[C@H]1N[*:1])[*:2]; Hexanoyl(6-maleimido) = O=C1C=CC(=O)N1CCCCCC(=O)*; X4 = CCCCc1nc2c(N)nc3ccccc3c2n1CCCCN*; DBCO = C1#Cc2ccccc2N(*)Cc2ccccc21; NHCH2OCH2CO = O=C(COCN[*:1])[*:2]; Suc = O=C(CCC(=O)[*:2])[*:1]; PEG3 = NCCOCCOCCOCCC(=O)O; GABA = NCCCC(=O)O
MEASURED_ATTRIBUTE: Substrate content % (%)

INSERT INTO measurements (compound, observed_result) VALUES
  ('CC[C@@]1(O)C(=O)OCc2c1cc1n(c2=O)Cc2c-1nc1cc(F)c(C)c3c1c2[C@@H](NC(=O)COCNC(=O)[C@H](CC(C)C)NC(=O)[C@H](Cc1ccccc1)NC(=O)CNC(=O)CNC(=O)CCCCCOC1O[C@H](CO)[C@H](O)[C@H](O)[C@H]1NC(C)=O)CC3 (stereo partly shown) [S18] (Ac-[X1]GGFL[NHCH2OCH2CO]-Exatecan)', 98.2),
  ('CCCCc1nc2c(N)nc3ccccc3c2n1CCCCNC(=O)[C@H](CC(C)C)NC(=O)[C@H](Cc1ccccc1)NC(=O)CNC(=O)CNC(=O)CCCCCN1C(=O)C=CC1=O [S3] ({Hexanoyl(6-maleimido)}-GGFL-X4)', 100),
  ('CC[C@@]1(O)C(=O)OCc2c1cc1n(c2=O)Cc2c-1nc1cc(F)c(C)c3c1c2[C@@H](NC(=O)[C@H](CC(C)C)NC(=O)[C@H](Cc1ccccc1)NC(=O)CNC(=O)CNC(=O)CCCCCN1C(=O)C=CC1=O)CC3 [S2] ({Hexanoyl(6-maleimido)}-GGFL-Exatecan)', 100),
  ('CC[C@@]1(O)C(=O)OCc2c1cc1n(c2=O)Cc2c-1nc1cc(F)c(C)c3c1c2[C@@H](NC(=O)CCCNC(=O)[C@H](CC(C)C)NC(=O)[C@H](Cc1ccccc1)NC(=O)CNC(=O)CNC(=O)CCOCCOCCOCCNC(=O)CCC(=O)N1Cc2ccccc2C#Cc2ccccc21)CC3 [S32] ({DBCO-Suc-PEG3}-GGFL[GABA]-Exatecan)', 100);
